- target.system: 5HT2C receptors (Homo sapiens, UniProt P28335)
- Sequence (P28335 33-458): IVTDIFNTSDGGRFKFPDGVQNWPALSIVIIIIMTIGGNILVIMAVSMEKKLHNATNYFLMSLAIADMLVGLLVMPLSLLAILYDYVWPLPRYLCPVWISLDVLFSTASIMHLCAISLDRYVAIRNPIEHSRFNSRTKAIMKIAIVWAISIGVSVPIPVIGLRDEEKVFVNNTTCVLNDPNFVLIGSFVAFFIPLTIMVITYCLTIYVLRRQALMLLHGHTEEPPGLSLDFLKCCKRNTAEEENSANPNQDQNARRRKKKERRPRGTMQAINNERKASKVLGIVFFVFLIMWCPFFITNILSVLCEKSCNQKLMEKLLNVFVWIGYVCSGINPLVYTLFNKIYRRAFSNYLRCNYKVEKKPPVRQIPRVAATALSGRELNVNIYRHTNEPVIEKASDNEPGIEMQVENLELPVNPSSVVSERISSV
- measurement.protocol: Human 5-HT2C functional high throughput screening assay in CHO-K1 cells (calcium flux)
- Assay type: cell-based
- Design: expressed in transfected cells; host or cells: CHO-K1 cells
- protocol.conditions: CHO-K1; 5-HT2C; maximum functional response as percentage relative to the effect of serotonin
observed.property: Emax (%)
Field: numeric (%). Do not append units.

{"molecule": "O=S(=O)(c1ccc(Cl)cc1)N1Cc2cccnc2[C@@H]2CNC[C@H]2C1 (relative stereo)", "readout.units": "%", "Emax": 90}
{"molecule": "Fc1cc(F)c2c(c1)[C@H]1CNC[C@@H]1CCO2 (relative stereo)", "readout.units": "%", "Emax": 80}
{"molecule": "O=S(=O)(c1ccc(F)cc1)N1Cc2cccnc2[C@@H]2CNC[C@H]2C1 (relative stereo)", "readout.units": "%", "Emax": 85}

Note: attention shifts to another entry.
Lookup: What value of Emax has been recorded for this entry: CN1C[C@H]2CNC(=O)c3ccccc3[C@@H]2C1 (relative stereo)
Found: 120

* * *

- target.system: 5HT2B receptors (Homo sapiens, UniProt P41595)
- Construct: expressed in transfected cells; host or cells: CHO-K1 cells
- Sequence (P41595 whole entry): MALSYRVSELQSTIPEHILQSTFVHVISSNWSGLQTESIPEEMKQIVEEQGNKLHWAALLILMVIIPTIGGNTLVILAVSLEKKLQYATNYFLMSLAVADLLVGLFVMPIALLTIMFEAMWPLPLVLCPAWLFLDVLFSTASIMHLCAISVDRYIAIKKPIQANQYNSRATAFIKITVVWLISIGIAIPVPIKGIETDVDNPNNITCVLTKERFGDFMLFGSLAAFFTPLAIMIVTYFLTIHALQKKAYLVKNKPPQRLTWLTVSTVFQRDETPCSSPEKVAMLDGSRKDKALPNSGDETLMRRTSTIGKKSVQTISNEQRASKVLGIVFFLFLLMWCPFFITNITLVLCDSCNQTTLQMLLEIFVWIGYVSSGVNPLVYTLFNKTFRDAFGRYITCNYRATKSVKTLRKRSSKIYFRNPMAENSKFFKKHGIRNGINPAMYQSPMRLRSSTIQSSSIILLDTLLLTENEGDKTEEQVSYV
- measurement.protocol: Human 5-HT2B functional high throughput screening assay in CHO-K1 cells (calcium flux)
- Assay type: cell-based
- protocol.conditions: 5-HT2B; maximum functional response as percentage relative to the effect of serotonin
observed.property: Emax

{"compound": "c1ccc(-c2ccc3c(c2)OCC[C@H]2CNC[C@H]32)cc1 (relative stereo)", "meas.value": "inactive"}
{"compound": "CN1C[C@H]2CNC(=O)c3cc(C4=CCCC4)ccc3[C@@H]2C1 (relative stereo)", "meas.value": "inactive"}
{"compound": "CN1C[C@H]2CNC(=O)c3cc(-c4ccccc4F)ccc3[C@@H]2C1 (relative stereo)", "meas.value": "inactive"}
{"compound": "CC(C)c1cccc(-c2ccc3c(c2)C(=O)NC[C@@H]2CN(C)C[C@@H]32)c1 (relative stereo)", "meas.value": "inactive"}

Lookup: Give recorded Emax with 5HT2B receptors (Homo sapiens, UniProt P41595) for the following compound: CN1C[C@@H]2CNC[C@H]2c2ccc(-c3cccc(CCO)c3)cc2C1=O (relative stereo)
Found: inactive

Lookup: Give recorded Emax with 5HT2B receptors (Homo sapiens, UniProt P41595) for the following compound: C[C@@H](Cc1ccccc1)Oc1ccc2c(c1)C(=O)NC[C@@H]1CN(Cc3ccccc3)C[C@@H]21 (mixture of isomers)
Found: inactive

Lookup: Give recorded Emax with 5HT2B receptors (Homo sapiens, UniProt P41595) for the following compound: CN1C[C@H]2CNC(=O)c3cc(OCc4ccccc4F)ccc3[C@@H]2C1 (relative stereo)
Found: inactive

Lookup: Give recorded Emax with 5HT2B receptors (Homo sapiens, UniProt P41595) for the following compound: COc1ccc(CCOc2ccc3c(c2)C(=O)NC[C@@H]2CNC[C@@H]32)cc1 (relative stereo)
Found: inactive

Lookup: Give recorded Emax with 5HT2B receptors (Homo sapiens, UniProt P41595) for the following compound: c1ccc(-c2cccc3c2OCC[C@H]2CNC[C@H]32)cc1 (relative stereo)
Found: inactive

* * *

Measured EC50, listed per entry.
- target.system: 5HT2C receptors (Homo sapiens)
- measurement.protocol: Human 5-HT2C functional high throughput screening assay in CHO-K1 cells (calcium flux)
- Type: cell-based
- Set-up: expressed in transfected cells; host or cells: CHO-K1 cells
- protocol.conditions: 5-HT2C agonist activity; CHO-K1 cells; calcium flux; read-out: EC50
Field: numeric (nM). Do not append units.

Reference set, count: 5
{"compound": "O=C1NC[C@@H]2CNC[C@H]2c2ccc(-c3cccc(CCO)c3)cc21 (relative stereo) [Example 252]", "readout.units": "nM", "EC50": 0.4}
{"compound": "O=C1C[C@@H]2CN(Cc3ccccc3)C[C@H]2c2ccccc2N1 (relative stereo) [Example 222]", "readout.units": "nM", "EC50": 400}
{"compound": "COc1cc(F)ccc1-c1ccc2c(c1)C(=O)NC[C@@H]1CN(C)C[C@@H]21 (relative stereo) [Example 299]", "readout.units": "nM", "EC50": 10}
{"compound": "CN1C[C@H]2CNC(=O)c3cc(-c4ccccc4F)ccc3[C@@H]2C1 (relative stereo) [Example 77]", "readout.units": "nM", "EC50": 5.8}
{"compound": "COc1c(C)cc(-c2ccc3c(c2)C(=O)NC[C@@H]2CN(C)C[C@@H]32)cc1C (relative stereo) [Example 317]", "readout.units": "nM", "EC50": 70}

Lookup: Give recorded EC50 with 5HT2C receptors (Homo sapiens) for the following compound: CC(C)(C)c1ccc(S(=O)(=O)N2Cc3cccnc3[C@@H]3CNC[C@H]3C2)cc1 (relative stereo) [Example 344]
Found: 90

Lookup: Give recorded EC50 with 5HT2C receptors (Homo sapiens) for the following compound: CN1C[C@@H]2CNC(=O)c3cc(OCc4cc(F)cc(F)c4)ccc3[C@H]2C1 [Example 208]
Found: 2
